Tested on: primary mouse hepatocytes
assay_text: Gene expression (Affymetrix Mouse Genome 430 2.0) in primary mouse hepatocytes, true vs false GTX, 24 h and 48 h
measurement_parameters: 24 h average; log2, corrected for vehicle control
recorded_metric: Gene expression data AV219418 (Ldhb)

>>> reading("O=c1c(O)c(-c2ccc(O)c(O)c2)oc2cc(O)cc(O)c12")
"−0.1808"
>>> reading("CC(=O)Nc1ccc2c(c1)Cc1ccccc1-2")
"−0.3695"
>>> reading("Nc1ccccc1C(=O)O")
"−0.2907"
>>> reading("CN(C)N=O")
2.743
>>> reading("c1ccc2c(c1)cc1ccc3cccc4ccc2c1c34")
0.2781
>>> reading("Nc1ccc([N+](=O)[O-])cc1N")
"−1.032"

----------
System: primary mouse hepatocytes
assay_text: Gene expression (Affymetrix Mouse Genome 430 2.0) in primary mouse hepatocytes, true vs false GTX, 24 h and 48 h
measurement_parameters: 24 h average; log2, corrected for vehicle control
Under this convention, True denotes Gene expression data AW543723 strictly below 0.4 and False denotes Gene expression data AW543723 at or above 0.4.

>>> qualitative_label("c1ccc2c(c1)cc1ccc3cccc4ccc2c1c34")
"False"
>>> qualitative_label("CC(=O)Nc1ccc2c(c1)Cc1ccccc1-2")
"True"
>>> qualitative_label("Nc1ccccc1C(=O)O")
"True"
>>> qualitative_label("CN(C)N=O")
"False"
>>> qualitative_label("O=c1c(O)c(-c2ccc(O)c(O)c2)oc2cc(O)cc(O)c12")
"False"
>>> qualitative_label("Nc1ccc([N+](=O)[O-])cc1N")
"False"

----------
Test system: primary mouse hepatocytes
assay_text: Gene expression (Affymetrix Mouse Genome 430 2.0) in primary mouse hepatocytes, true vs false GTX, 24 h and 48 h
measurement_parameters: 24 h average; log2, corrected for vehicle control
Under this convention, True denotes Gene expression data BB308836 (Ppm1l) strictly below -0.1 and False denotes Gene expression data BB308836 (Ppm1l) at or above -0.1.

>>> qualitative_label("Nc1ccc([N+](=O)[O-])cc1N")
"False"
>>> qualitative_label("CN(C)N=O")
"True"
>>> qualitative_label("O=c1c(O)c(-c2ccc(O)c(O)c2)oc2cc(O)cc(O)c12")
"False"
>>> qualitative_label("Nc1ccccc1C(=O)O")
"False"
>>> qualitative_label("CC(=O)Nc1ccc2c(c1)Cc1ccccc1-2")
"True"
>>> qualitative_label("c1ccc2c(c1)cc1ccc3cccc4ccc2c1c34")
"True"

----------
Test system: primary mouse hepatocytes
assay_text: Gene expression (Affymetrix Mouse Genome 430 2.0) in primary mouse hepatocytes, true vs false GTX, 24 h and 48 h
measurement_parameters: 48 h; log2, corrected for vehicle control
// label = Y if Gene expression AI747296 average is not less than -0.4, otherwise N

>>> qualitative_label("Nc1ccccc1C(=O)O [ANAC, o-Anthranilic acid]")
"Y"
>>> qualitative_label("CN(C)N=O [DMN, Dimethylnitrosamine]")
"N"
>>> qualitative_label("c1ccc2c(c1)cc1ccc3cccc4ccc2c1c34 [BaP, Benzo(a)pyrene]")
"N"
>>> qualitative_label("Nc1ccc([N+](=O)[O-])cc1N [4-NP, 4-Nitro-o-phenylenediamine]")
"Y"
>>> qualitative_label("CC(=O)Nc1ccc2c(c1)Cc1ccccc1-2 [2-AAF, 2-Acetylaminofluorene]")
"N"
>>> qualitative_label("O=c1c(O)c(-c2ccc(O)c(O)c2)oc2cc(O)cc(O)c12 [Q, Quercetin]")
"Y"

----------
System: primary mouse hepatocytes
assay_text: Gene expression in primary mouse hepatocytes, GTX vs non-GTX (four-gene classifier, 24 h)
measurement_parameters: sum of scores for four genes; 0 = not genotoxic, 1, 2, 3 or 4 = genotoxic
recorded_metric: Total score

>>> reading("CC(C)(c1ccc(O)cc1)c1ccc(O)cc1")
0
>>> reading("O=C(O)Cc1ccccc1Nc1c(Cl)cccc1Cl")
0
>>> reading("Cc1cccc(Nc2cc(Cl)nc(SCC(=O)O)n2)c1C")
0
>>> reading("CCCCCCCCCCCCCC(=O)O[C@@H]1[C@@H](C)[C@@]2(O)[C@@H](C=C(CO)C[C@]3(O)C(=O)C(C)=C[C@@H]23)[C@@H]2C(C)(C)[C@]12OC(C)=O [TPA, Tetradecanoylphorbol Acetate]")
0
>>> reading("ClC(Cl)(Cl)Cl [CCI4, Carbon tetrachloride]")
0
>>> reading("CN(C)N=O")
1
>>> reading("OC[C@@H](O)[C@@H](O)[C@H](O)[C@H](O)CO")
0
>>> reading("CCC[CH2][Sn]([CH2]CCC)([CH2]CCC)[O][Sn]([CH2]CCC)([CH2]CCC)[CH2]CCC [TBTO, Bis(tri-n-butyltin)oxide]")
0
>>> reading("Clc1cc2c(cc1Cl)Oc1cc(Cl)c(Cl)cc1O2")
0

----------
System: primary mouse hepatocytes
assay_text: Gene expression (Affymetrix Mouse Genome 430 2.0) in primary mouse hepatocytes, true vs false GTX, 24 h and 48 h
measurement_parameters: 24 h average; log2, corrected for vehicle control
recorded_metric: Gene expression data AF065917 (Lif)

>>> reading("Nc1ccccc1C(=O)O")
"−0.2023"
>>> reading("c1ccc2c(c1)cc1ccc3cccc4ccc2c1c34")
0.9227
>>> reading("CC(=O)Nc1ccc2c(c1)Cc1ccccc1-2")
"−0.1242"
>>> reading("CN(C)N=O")
1.804
>>> reading("O=c1c(O)c(-c2ccc(O)c(O)c2)oc2cc(O)cc(O)c12")
"−0.1024"
>>> reading("Nc1ccc([N+](=O)[O-])cc1N")
"−0.4573"

----------
Tested on: primary mouse hepatocytes
assay_text: Gene expression (Affymetrix Mouse Genome 430 2.0) in primary mouse hepatocytes, true vs false GTX, 24 h and 48 h
measurement_parameters: 24 h average; log2, corrected for vehicle control
recorded_metric: Gene expression data BC015270 (Hist2h3c2)

>>> reading("O=c1c(O)c(-c2ccc(O)c(O)c2)oc2cc(O)cc(O)c12 [Q, Quercetin]")
"−0.3924"
>>> reading("Nc1ccc([N+](=O)[O-])cc1N [4-NP, 4-Nitro-o-phenylenediamine]")
"−0.7846"
>>> reading("CC(=O)Nc1ccc2c(c1)Cc1ccccc1-2 [2-AAF, 2-Acetylaminofluorene]")
"−0.1327"
>>> reading("c1ccc2c(c1)cc1ccc3cccc4ccc2c1c34 [BaP, Benzo(a)pyrene]")
0.7908
>>> reading("Nc1ccccc1C(=O)O [ANAC, o-Anthranilic acid]")
0.1186
>>> reading("CN(C)N=O [DMN, Dimethylnitrosamine]")
0.9816

----------
System: primary mouse hepatocytes
assay_text: Gene expression (Affymetrix Mouse Genome 430 2.0) in primary mouse hepatocytes, true vs false GTX, 24 h and 48 h
measurement_parameters: 24 h average; log2, corrected for vehicle control
Under this convention, rule met denotes Gene expression data AK009736 (Gpr137b /// LOC664862 /// LOC673335) strictly below 0.2 and rule not met denotes Gene expression data AK009736 (Gpr137b /// LOC664862 /// LOC673335) at or above 0.2.

>>> qualitative_label("c1ccc2c(c1)cc1ccc3cccc4ccc2c1c34")
"rule not met"
>>> qualitative_label("CC(=O)Nc1ccc2c(c1)Cc1ccccc1-2")
"rule met"
>>> qualitative_label("Nc1ccccc1C(=O)O")
"rule met"
>>> qualitative_label("O=c1c(O)c(-c2ccc(O)c(O)c2)oc2cc(O)cc(O)c12")
"rule not met"
>>> qualitative_label("CN(C)N=O")
"rule met"
>>> qualitative_label("Nc1ccc([N+](=O)[O-])cc1N")
"rule not met"

----------
Test system: primary mouse hepatocytes
assay_text: Gene expression (Affymetrix Mouse Genome 430 2.0) in primary mouse hepatocytes, true vs false GTX, 24 h and 48 h
measurement_parameters: 48 h; log2, corrected for vehicle control
Gene expression AF055573 average values for the molecules below.
recorded_metric: Gene expression AF055573 average

>>> reading("CC(=O)Nc1ccc2c(c1)Cc1ccccc1-2")
"−0.2895"
>>> reading("CN(C)N=O")
"−1.913"
>>> reading("Nc1ccc([N+](=O)[O-])cc1N")
"−0.1973"
>>> reading("Nc1ccccc1C(=O)O")
"−0.1687"
>>> reading("c1ccc2c(c1)cc1ccc3cccc4ccc2c1c34")
"−1.5573"
>>> reading("O=c1c(O)c(-c2ccc(O)c(O)c2)oc2cc(O)cc(O)c12")
0.0039

----------
Tested on: primary mouse hepatocytes
assay_text: Gene expression (Affymetrix Mouse Genome 430 2.0) in primary mouse hepatocytes, true vs false GTX, 24 h and 48 h
measurement_parameters: 48 h; log2, corrected for vehicle control
recorded_metric: Gene expression BC010318 average

>>> reading("O=c1c(O)c(-c2ccc(O)c(O)c2)oc2cc(O)cc(O)c12")
0.2274
>>> reading("Nc1ccccc1C(=O)O")
0.1353
>>> reading("c1ccc2c(c1)cc1ccc3cccc4ccc2c1c34")
"−0.5529"
>>> reading("CN(C)N=O")
"−1.167"
>>> reading("Nc1ccc([N+](=O)[O-])cc1N")
0.1861
>>> reading("CC(=O)Nc1ccc2c(c1)Cc1ccccc1-2")
"−0.02213"

Origin of the recorded values: patent US20120122727A1
